Target: T1, SARS-CoV-2 S1 (subunit 1) protein (SARS-CoV-2, UniProt P0DTC2 16-685)
T1 construct: also called biotinylated SARS-CoV-2 S1
Test: phage ELISA
Task for the reader: assign each of the following binders its reported screening ELISA (Avg), fold over background.
Respond with the bare value in fold over background.

Give reported screening ELISA (Avg), fold over background value for SARS-CoV-2 variant 1-37 (antibody, V domains shown) VH: EVQLLESGGGLVQPGGSLRLSCAASGFTFTSYAMNWVRQAPGKGLEWVTAISGSGGSTFYADSVKGRFTISRDNSKNTLYLQMNSLRAEDTAVYYCTRPPYGDYGDYWGQGTLVTVSS VL: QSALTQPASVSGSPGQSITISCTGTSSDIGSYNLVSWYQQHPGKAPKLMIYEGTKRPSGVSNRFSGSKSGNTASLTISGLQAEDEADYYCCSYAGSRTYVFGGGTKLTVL 27

Give screening ELISA (Avg), fold over background for SARS-CoV-2 variant 1-28 (antibody, V domains shown) VH: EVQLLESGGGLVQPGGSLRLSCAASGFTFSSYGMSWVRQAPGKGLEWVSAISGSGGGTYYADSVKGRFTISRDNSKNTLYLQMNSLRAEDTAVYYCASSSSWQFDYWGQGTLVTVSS VL: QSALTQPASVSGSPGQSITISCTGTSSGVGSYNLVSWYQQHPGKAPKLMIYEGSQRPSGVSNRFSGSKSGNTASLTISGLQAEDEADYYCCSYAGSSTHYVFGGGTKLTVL 17.7

Retrieve screening ELISA (Avg), fold over background measured for SARS-CoV-2 variant 1-4 (antibody, V domains shown) VH: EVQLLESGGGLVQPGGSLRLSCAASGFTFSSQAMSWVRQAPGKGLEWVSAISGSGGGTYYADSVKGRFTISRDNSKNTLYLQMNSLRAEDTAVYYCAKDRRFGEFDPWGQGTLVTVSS VL: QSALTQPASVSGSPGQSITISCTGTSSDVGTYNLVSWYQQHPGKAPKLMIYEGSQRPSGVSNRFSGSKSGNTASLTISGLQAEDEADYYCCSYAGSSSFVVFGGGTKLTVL and print it. 20.6

Answer with the recorded screening ELISA (Avg), fold over background for the binder listed here: SARS-CoV-2 variant 1-21 (antibody, V domains shown) VH: EVQLLESGGGLVQPGGSLRLSCAASGFTFSSYTMSWVRQAPGKGLEWVSIISGSGGSTYYADSVKGRFTISRDNSKNTLYLQMNSLRAEDTAVYYCAREGYRDYLWYFDLWGQGTLVTVSS VL: QSALTQPASVSGSPGQSITISCTGTSSDVGSNNLVSWYQQHPGKAPKLMIYEGNKRPSGVSNRFSGSKSGNTASLTISGLQAEDEADYYCCSYAGSVVFGGGTKLTVL 47.6

Respond only with screening ELISA (Avg), fold over background recorded for SARS-CoV-2 variant 1-5 (antibody, V domains shown) VH: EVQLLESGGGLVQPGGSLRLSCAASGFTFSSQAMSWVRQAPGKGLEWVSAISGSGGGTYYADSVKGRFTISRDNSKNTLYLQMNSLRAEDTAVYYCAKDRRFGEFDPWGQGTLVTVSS VL: QSALTQPASVSGSPGQSITISCTGTSSGVGSYNLVSWYQQHPGKAPKLMIYEASKRPSGVSNRFSGSKSGNTASLTISGLQAEDEADYYCCSYAGSYTFAVFGGGTKLTVL 20.6
